- MEASURED TARGET: glutathione-S-transferase (GST) tagged LXRbeta LBD (ligand binding domain) (Homo sapiens, UniProt P55055)
- Construct: purchased Invitrogen pv4658.pps
- Sequence (P55055 222-460 limits assumed): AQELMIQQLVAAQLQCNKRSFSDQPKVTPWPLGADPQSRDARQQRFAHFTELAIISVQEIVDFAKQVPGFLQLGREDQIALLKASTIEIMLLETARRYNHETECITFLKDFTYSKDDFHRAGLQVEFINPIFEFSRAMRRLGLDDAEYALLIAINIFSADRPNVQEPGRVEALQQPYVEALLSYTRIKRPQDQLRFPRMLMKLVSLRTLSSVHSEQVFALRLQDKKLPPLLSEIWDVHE
- TEST DESCRIPTION: LanthaScreen TR-FRET Liver X Receptor Coactivator Assay, co-activator recruitment to LXRbeta LBD
- Assay type: biochemical
- CONDITION CONTEXT: potency (Inflection Point, IP), co-activator recruitment to LXRbeta LBD, in relation to T0901317; read-out: LXR beta IP
PROPERTY MEASURED: EC50 (nM)
Write the value in nM as a bare number.

Some molecules with recorded EC50:
| MOLECULE | EC50 / nM |
| --- | --- |
| CNC(=O)c1ccc(N2CCC(CC3CCN(C(=O)C(O)(c4cc(F)cc(F)c4)C(F)(F)F)CC3)CC2)nc1Cl (stereo not drawn) | 6 |
| COc1cccc(C(O)(C(=O)N2CCC(CCC3CCN(c4ccc(C(=O)N(C)C)c(Cl)c4)CC3)CC2)C(F)(F)F)c1 (stereo not drawn) | 728 |
| COc1cccc([C@@](O)(C(=O)N2CCC(CC3CCN(c4ccc(C(=O)N(C)C)cc4)CC3)CC2)C(F)F)c1 | 191 |
| CN(C)C(=O)c1ccc(N2CCC(CC3CCN(C(=O)[C@](O)(c4cccc(OC(F)F)c4)C(F)(F)F)CC3)CC2)cc1 | 120 |
| COc1cccc([C@@](O)(C(=O)N2CCC(CC3CCN(c4ccc(C(=O)N(C)C)c(Cl)n4)CC3)CC2)C(F)(F)F)c1 [Example 7-74] | 7 |
| CN(C)C(=O)c1ccc(N2CCC(CC3CCN(C(=O)[C@](O)(c4cccc(C(F)(F)F)c4)C(F)(F)F)CC3)CC2)nc1Cl | 7 |
| COc1cccc([C@@](O)(C(=O)N2CCC(OC3CCN(c4ccc(C(=O)N(C)C)c(OC)n4)CC3)CC2)C(F)(F)F)c1 | 47 |
| COc1cccc([C@@](O)(C(=O)N2CCC(CC3CCN(c4ccc(C(=O)N(C)C)c(C)c4)CC3)CC2)C(F)(F)F)c1 | 20 |

Query COc1cc(F)cc([C@@](O)(C(=O)N2CCC(CC3CCN(c4ccc(C(=O)N(C)C)cc4)CC3)CC2)C(F)(F)F)c1 yields EC50 of 30

Entry under test: CCOc1cccc([C@@](O)(C(=O)N2CCC(C)(CC3CCN(c4ccc(C(=O)N(C)C)c(C)c4)CC3)CC2)C(F)(F)F)c1 . Its EC50 was 40

Lab book: EC50 of Cc1cc(N2CCC(CC3CN(C(=O)[C@](O)(c4cc(F)cc(Cl)c4)C(F)(F)F)C3)CC2)ccc1C(=O)N(C)C noted as 39

Noted for CNC(=O)c1ccc(N2CCC(CC3CCN(C(=O)C(O)(c4cccc(C(F)(F)F)c4)C(F)(F)F)CC3)CC2)cc1Cl (stereo not drawn) : its EC50 reads 96

Field EC50 (entry CC(C)Oc1cccc([C@@](O)(C(=O)N2CCC(CC3CCN(c4ccc(C(=O)N(C)C)cc4)CC3)CC2)C(F)(F)F)c1 ) reads 44
